# measurementProtocol: Binding affinity to immobilized HIV1 YU2 gp120 by surface plasmon resonance method
# Design: species or system Human immunodeficiency virus 1
parameter: pKd
Interpret pKd as the negative base-10 log of the concentration measured in mol/L.

[in] Can you look up the measured pKd of CC[C@H](C)[C@H](NC(=O)[C@@H](N)CCCNC(=N)N)C(=O)N[C@@H](CC(N)=O)C(=O)N[C@@H](CC(N)=O)C(=O)N[C@H](C(=O)N1C[C@@H](n2cc(-c3cc(C)c(C)cc3C)nn2)C[C@H]1C(=O)N[C@@H](Cc1c[nH]c2ccccc12)C(=O)N[C@@H](CO)C(=O)N[C@@H](CCC(=O)O)C(=O)N[C@@H](C)C(=O)N[C@@H](CCSC)C(=O)N[C@@H](CCSC)C(=O)O)[C@@H](C)CC for me?
[out] 6.80

* * *

# measurementProtocol: Inhibition of HIV1 YU2 gp120 binding to immobilized CD4 induced 17b monoclonal antibody by surface plasmon resonance method
# Design: species or system Human immunodeficiency virus 1
parameter: IC50

[in] Can you look up the measured IC50 of CC[C@H](C)[C@H](NC(=O)[C@@H](N)CCCNC(=N)N)C(=O)N[C@@H](CC(N)=O)C(=O)N[C@@H](CC(N)=O)C(=O)N[C@H](C(=O)N1C[C@@H](n2cc(-c3ccc(C)cc3)nn2)C[C@H]1C(=O)N[C@@H](Cc1c[nH]c2ccccc12)C(=O)N[C@@H](CO)C(=O)N[C@@H](CCC(=O)O)C(=O)N[C@@H](C)C(=O)N[C@@H](CCSC)C(=O)N[C@@H](CCSC)C(=O)O)[C@@H](C)CC for me?
[out] 94 nM

[in] Can you look up the measured IC50 of CCc1ccc(-c2cn([C@H]3C[C@@H](C(=O)N[C@@H](Cc4c[nH]c5ccccc45)C(=O)N[C@@H](CO)C(=O)N[C@@H](CCC(=O)O)C(=O)N[C@@H](C)C(=O)N[C@@H](CCSC)C(=O)N[C@@H](CCSC)C(=O)O)N(C(=O)[C@@H](NC(=O)[C@H](CC(N)=O)NC(=O)[C@H](CC(N)=O)NC(=O)[C@@H](NC(=O)[C@@H](N)CCCNC(=N)N)[C@@H](C)CC)[C@@H](C)CC)C3)nn2)cc1 for me?
[out] 177 nM

[in] Can you look up the measured IC50 of CC[C@H](C)[C@H](NC(=O)[C@@H](N)CCCNC(=N)N)C(=O)N[C@@H](CC(N)=O)C(=O)N[C@@H](CC(N)=O)C(=O)N[C@H](C(=O)N1C[C@@H](n2cc(-c3ccc(CCc4ccccc4)cc3)nn2)C[C@H]1C(=O)N[C@@H](Cc1c[nH]c2ccccc12)C(=O)N[C@@H](CO)C(=O)N[C@@H](CCC(=O)O)C(=O)N[C@@H](C)C(=O)N[C@@H](CCSC)C(=O)N[C@@H](CCSC)C(=O)O)[C@@H](C)CC for me?
[out] 129 nM

[in] Can you look up the measured IC50 of CC[C@H](C)[C@H](NC(=O)[C@@H](N)CCCNC(=N)N)C(=O)N[C@@H](CC(N)=O)C(=O)N[C@@H](CC(N)=O)C(=O)N[C@H](C(=O)N1C[C@@H](n2cc(-c3ccccc3)nn2)C[C@H]1C(=O)N[C@@H](Cc1c[nH]c2ccccc12)C(=O)N[C@@H](CO)C(=O)N[C@@H](CCC(=O)O)C(=O)N[C@@H](C)C(=O)N[C@@H](CCSC)C(=O)N[C@@H](CCSC)C(=O)O)[C@@H](C)CC for me?
[out] 172 nM
